tgt: Protein S100-A4 (Homo sapiens) (UniProt P26447)
Sequence (P26447 whole entry, looked up): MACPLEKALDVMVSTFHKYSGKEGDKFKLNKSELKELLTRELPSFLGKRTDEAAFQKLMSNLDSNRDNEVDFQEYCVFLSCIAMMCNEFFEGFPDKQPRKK
method: human S100A4 peptide interaction inhibition curves – biochemical, fluorescence polarization, cherry-picked hits, dose response (AID 687001)
measurement.setup: FP, S100A4/TAMRA-myosin IIA peptide binding; series mostly up to 11 µM
Results with a measured potency or affinity are listed apart. Calls of active or inactive are those of the source.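 Rule for the calls: active = signal-lowering compounds whose fitted half-maximal concentration is at or below twice the top tested dose in every run; inconclusive = runs disagree, flat 30 to 70% inhibition, or poor curve fit; inactive = the rest.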

>  <compound>
COc1ccccc1Nc1cc(C)nc(Nc2ccccc2OC)n1

>  <tgt>
Protein S100-A4 (Homo sapiens) (UniProt P26447)

>  <activity change, negative = inhibition>
inactive

$$$$
>  <compound>
NC(=O)c1cc(S(=O)(=O)Nc2cccc(Cl)c2)cs1

>  <tgt>
Protein S100-A4 (Homo sapiens) (UniProt P26447)

>  <activity change, negative = inhibition>
inactive

$$$$
>  <compound>
Nc1[nH]c(C(=O)c2ccccc2)c(-c2ccccc2C(F)(F)F)c1C(=O)NCc1cccc2ccccc12

>  <tgt>
Protein S100-A4 (Homo sapiens) (UniProt P26447)

>  <activity change, negative = inhibition>
inactive

$$$$
>  <compound>
S=c1[nH]nc(Nc2cccc3ccccc23)s1

>  <tgt>
Protein S100-A4 (Homo sapiens) (UniProt P26447)

>  <activity change, negative = inhibition>
inactive

$$$$
>  <compound>
COC(=O)c1c(NC(=O)CN(C)CC(=O)Nc2ccc(C)cc2)sc2c1CCC(C)C2 (centres undefined)

>  <tgt>
Protein S100-A4 (Homo sapiens) (UniProt P26447)

>  <activity change, negative = inhibition>
inactive

$$$$
>  <compound>
Cc1ccc(CCNC(=O)c2cc(-c3ccncc3)nc3ccc(S(=O)(=O)N4CCOCC4)cc23)cc1

>  <tgt>
Protein S100-A4 (Homo sapiens) (UniProt P26447)

>  <activity change, negative = inhibition>
inactive

$$$$
>  <compound>
Cn1c(=O)oc2cc(S(=O)(=O)NCc3ccc(Cl)cc3)ccc21

>  <tgt>
Protein S100-A4 (Homo sapiens) (UniProt P26447)

>  <activity change, negative = inhibition>
inactive

$$$$
>  <compound>
C[C@H]1CN([C@@H](C)CO)C(=O)c2cccc(NC(=O)C3CC3)c2O[C@@H]1CN(C)Cc1ccc2c(c1)OCO2

>  <tgt>
Protein S100-A4 (Homo sapiens) (UniProt P26447)

>  <activity change, negative = inhibition>
inactive

$$$$
>  <compound>
COc1cccc(CN2CC(C(=O)NCC3CCOCC3)CCC2=O)c1 (centres undefined)

>  <tgt>
Protein S100-A4 (Homo sapiens) (UniProt P26447)

>  <activity change, negative = inhibition>
inactive

$$$$
>  <compound>
Cc1ccc(C(=O)NC2CC(=O)N(c3ccc4c(c3)OCCO4)C2)cc1[N+](=O)[O-] (centres undefined)

>  <tgt>
Protein S100-A4 (Homo sapiens) (UniProt P26447)

>  <activity change, negative = inhibition>
inactive

$$$$
>  <compound>
COc1ccc(Cl)cc1S(=O)(=O)n1ccnc1

>  <tgt>
Protein S100-A4 (Homo sapiens) (UniProt P26447)

>  <activity change, negative = inhibition>
inactive

$$$$
>  <compound>
CCCCN1C[C@H](CSC)[C@@H](CC(=O)Nc2ccc(Br)cc2)C1=O

>  <tgt>
Protein S100-A4 (Homo sapiens) (UniProt P26447)

>  <activity change, negative = inhibition>
inactive

$$$$
>  <compound>
N#Cc1cccc(-c2ccc3c(c2)[C@@H]2[C@@H](CCN2C(=O)c2ccncc2)[C@@H](CO)N3)c1

>  <tgt>
Protein S100-A4 (Homo sapiens) (UniProt P26447)

>  <activity change, negative = inhibition>
inactive

$$$$
>  <compound>
CC(C)C#Cc1ccc([C@H]2[C@@H](CO)N(C(=O)c3cccc(F)c3)[C@H]2C#N)cc1

>  <tgt>
Protein S100-A4 (Homo sapiens) (UniProt P26447)

>  <activity change, negative = inhibition>
inactive

$$$$
>  <compound>
COc1ccc(C)cc1NS(=O)(=O)c1ccc2c(c1)N(C)CCO2

>  <tgt>
Protein S100-A4 (Homo sapiens) (UniProt P26447)

>  <activity change, negative = inhibition>
inactive

$$$$
>  <compound>
CCCC(=O)Nc1ccc2c(c1)OC[C@@H](C)N(C(=O)c1cnccn1)C[C@@H](C)[C@H](OC)CN(C)C2=O

>  <tgt>
Protein S100-A4 (Homo sapiens) (UniProt P26447)

>  <activity change, negative = inhibition>
inactive

$$$$
>  <compound>
COc1cc(Cl)ccc1OCc1cc(C(=O)N2CCCCCCC2)no1

>  <tgt>
Protein S100-A4 (Homo sapiens) (UniProt P26447)

>  <activity change, negative = inhibition>
inactive

$$$$
>  <compound>
CCCCn1c(N)c(N(CC)C(=O)CSCc2ccc(C)cc2)c(=O)[nH]c1=O

>  <tgt>
Protein S100-A4 (Homo sapiens) (UniProt P26447)

>  <activity change, negative = inhibition>
inactive

$$$$
>  <compound>
Cc1cnc(CN(C)C(=O)C2CCC(=O)N(CCc3ccccc3)C2)[nH]1 (centres undefined)

>  <tgt>
Protein S100-A4 (Homo sapiens) (UniProt P26447)

>  <activity change, negative = inhibition>
inactive

$$$$
>  <compound>
CCS(=O)(=O)c1nc(S(=O)(=O)c2ccc(C)cc2)c(NCCCN2CCCC2=O)s1

>  <tgt>
Protein S100-A4 (Homo sapiens) (UniProt P26447)

>  <activity change, negative = inhibition>
inactive

$$$$
>  <compound>
O=C(CC1C[C@H](C(=O)N2CCCCC2)[C@@]2(CCc3ccccc3)c3[nH]c4ccccc4c3CCN2C1=O)NCCC1=CCCCC1 (some centres undefined)

>  <tgt>
Protein S100-A4 (Homo sapiens) (UniProt P26447)

>  <activity change, negative = inhibition>
inactive

$$$$
>  <compound>
O=S(=O)(NCCN1CCOCC1)c1ccc(-c2ccc(S(=O)(=O)NCCN3CCOCC3)cc2)cc1

>  <tgt>
Protein S100-A4 (Homo sapiens) (UniProt P26447)

>  <activity change, negative = inhibition>
inactive

$$$$
>  <compound>
O=C(C[C@@H]1CC[C@@H]2[C@H](COC[C@H](O)CN2C(=O)c2cccnc2)O1)NCc1ccc(Cl)cc1

>  <tgt>
Protein S100-A4 (Homo sapiens) (UniProt P26447)

>  <activity change, negative = inhibition>
inactive

$$$$
>  <compound>
CC(NC(=O)C(=O)NCc1cccs1)c1ccccc1 (centres undefined)

>  <tgt>
Protein S100-A4 (Homo sapiens) (UniProt P26447)

>  <activity change, negative = inhibition>
inactive

$$$$
>  <compound>
CCC(=O)N1CC(=O)N2[C@H](CO)[C@H](c3ccc(C#CC4CCCC4)cc3)[C@H]2C1

>  <tgt>
Protein S100-A4 (Homo sapiens) (UniProt P26447)

>  <activity change, negative = inhibition>
inactive

$$$$
>  <compound>
Cc1ccccc1CN1CCC(n2nccc2NC(=O)CCOc2ccccc2)CC1

>  <tgt>
Protein S100-A4 (Homo sapiens) (UniProt P26447)

>  <activity change, negative = inhibition>
inactive

$$$$
>  <compound>
CCCCCCCCNC(CO)(CO)CO

>  <tgt>
Protein S100-A4 (Homo sapiens) (UniProt P26447)

>  <activity change, negative = inhibition>
inactive

$$$$
>  <compound>
O=C(NCc1ccncc1)C1CCCN(S(=O)(=O)c2cc(Cl)ccc2Cl)C1 (centres undefined)

>  <tgt>
Protein S100-A4 (Homo sapiens) (UniProt P26447)

>  <activity change, negative = inhibition>
inactive

$$$$
>  <compound>
Cc1ccccc1OCC(=O)Nc1ccc(S(=O)(=O)N2CCCC2)cc1

>  <tgt>
Protein S100-A4 (Homo sapiens) (UniProt P26447)

>  <activity change, negative = inhibition>
inactive

$$$$
>  <compound>
Cc1cccc2c(CC(=O)Nc3ccccc3)noc12

>  <tgt>
Protein S100-A4 (Homo sapiens) (UniProt P26447)

>  <activity change, negative = inhibition>
inactive

$$$$
>  <compound>
Cc1cc2nnc(SCC(=O)NCC(c3ccccc3)N(C)C)n2c2ccccc12 (centres undefined)

>  <tgt>
Protein S100-A4 (Homo sapiens) (UniProt P26447)

>  <activity change, negative = inhibition>
inactive

$$$$
>  <compound>
O=C(Nc1ccccc1F)N1CC(=O)N2[C@H](CO)[C@@H](c3ccc(-c4ccccc4)cc3)[C@H]2C1

>  <tgt>
Protein S100-A4 (Homo sapiens) (UniProt P26447)

>  <activity change, negative = inhibition>
inactive

$$$$
>  <compound>
CCCCCC(=O)Nc1cc(S(=O)(=O)N2CCOCC2)ccc1N1CCCCC1

>  <tgt>
Protein S100-A4 (Homo sapiens) (UniProt P26447)

>  <activity change, negative = inhibition>
inactive

$$$$
>  <compound>
C[C@@H]1CN([C@H](C)CO)C(=O)c2cc(C#Cc3ccccc3)cnc2O[C@@H]1CN(C)C(=O)c1ccccc1F

>  <tgt>
Protein S100-A4 (Homo sapiens) (UniProt P26447)

>  <activity change, negative = inhibition>
inactive

$$$$
>  <compound>
O=C(CCN1CCCCC1)N[C@H]1CC[C@@H](CCNS(=O)(=O)c2ccc(Cl)cc2)O[C@H]1CO

>  <tgt>
Protein S100-A4 (Homo sapiens) (UniProt P26447)

>  <activity change, negative = inhibition>
inactive

$$$$
>  <compound>
Cc1ccc(C(=O)COC(=O)C2CC3CCCC(C2)C3=O)cc1[N+](=O)[O-] (centres undefined)

>  <tgt>
Protein S100-A4 (Homo sapiens) (UniProt P26447)

>  <activity change, negative = inhibition>
inactive

$$$$
>  <compound>
O=C(NCCC1CCCCN1S(=O)(=O)c1ccccc1)C(=O)NCC1CCCO1 (centres undefined)

>  <tgt>
Protein S100-A4 (Homo sapiens) (UniProt P26447)

>  <activity change, negative = inhibition>
inactive

$$$$
>  <compound>
CO[C@H]1CC[C@H]2CCN(C)C(=O)[C@@H](C)[C@H](OC)CN(C)C(=O)c3cc(C#N)ccc3OC[C@H]1O2

>  <tgt>
Protein S100-A4 (Homo sapiens) (UniProt P26447)

>  <activity change, negative = inhibition>
inactive

$$$$
>  <compound>
O=C(c1ccc(N2C(=O)CCC2=O)cc1)N1CCCSC1=Nc1ccccc1

>  <tgt>
Protein S100-A4 (Homo sapiens) (UniProt P26447)

>  <activity change, negative = inhibition>
inactive

$$$$

Values compiled from PubChem BioAssay AID687001.
